Sourced from patent US9499502B2

The molecules listed here are annotated with their pKi.
- Subject Of Test: purified human autoBACE-2 (Homo sapiens (Human), UniProt Q9Y5Z0)
- Sequence (Q9Y5Z0 63-473): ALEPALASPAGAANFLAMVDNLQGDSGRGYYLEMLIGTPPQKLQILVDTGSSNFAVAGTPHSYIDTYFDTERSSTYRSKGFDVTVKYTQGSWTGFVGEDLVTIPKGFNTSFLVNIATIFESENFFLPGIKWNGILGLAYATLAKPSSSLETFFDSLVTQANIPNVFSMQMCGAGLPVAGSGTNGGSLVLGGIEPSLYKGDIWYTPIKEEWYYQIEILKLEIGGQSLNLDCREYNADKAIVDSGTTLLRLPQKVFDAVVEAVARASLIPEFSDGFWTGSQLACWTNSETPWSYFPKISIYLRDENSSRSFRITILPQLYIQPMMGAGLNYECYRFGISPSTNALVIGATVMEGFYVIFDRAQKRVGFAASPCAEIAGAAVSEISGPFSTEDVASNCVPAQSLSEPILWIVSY
- Experimental Protocol: BACE-2 Assay (BACE-HTRF assay)
- Format: biochemical
- Test Conditions: Ki calculated from IC50 using the Cheng-Prusoff equation; read-out: BACE2 Ki
pKi: −log10 of the molar value.
Measured Attribute: pKi

Sample Smiles: C[C@@]1(c2cc(NC(=O)c3ccc(Cl)cn3)ccc2F)CS(=O)(=O)[C@@](C)(c2cccc(F)c2)C(=N)N1
Subject Of Test: purified human autoBACE-2 (Homo sapiens (Human), UniProt Q9Y5Z0)
Result: 7.00 to 7.96
//
Sample Smiles: COc1cnc(C(=O)Nc2ccc(F)c([C@]3(C)CS(=O)(=O)[C@](C)(c4cccc(F)c4)C(=N)N3)c2)cn1
Subject Of Test: purified human autoBACE-2 (Homo sapiens (Human), UniProt Q9Y5Z0)
Result: 6.15 to 7.00
//
Sample Smiles: CC1(C)C(N)=N[C@](C)(c2cc(Br)ccc2F)CS1(=O)=O
Subject Of Test: purified human autoBACE-2 (Homo sapiens (Human), UniProt Q9Y5Z0)
Result: 5.00 to 6.30

----------
- Subject Of Test: purified human autoBACE-2 (Homo sapiens (Human), UniProt Q9Y5Z0)
- Experimental Protocol: BACE-2 Assay (BACE-HTRF assay)
- Type: biochemical
- Test Conditions: Ki calculated from IC50 using the Cheng-Prusoff equation; read-out: BACE2 Ki

Sample Smiles: COc1cnc(C(=O)Nc2ccc(F)c([C@]3(C)CS(=O)(=O)[C@](C)(c4cc(C(F)(F)F)ccn4)C(=N)N3)c2)cn1
Ki: 0.011 to 0.1 µM

Sample Smiles: COc1cccc2cc(-c3ccc(F)c([C@]4(C)CS(=O)(=O)C(C)(C)C(=N)N4)c3)[nH]c12
Ki: < 0.2 µM

Sample Smiles: C[C@@]1(C2CCC2)C(=N)N[C@](C)(c2cc(NC(=O)c3ccc(C(F)(F)F)cn3)ccc2F)CS1(=O)=O
Ki: 0.101 to 0.7 µM

Sample Smiles: COc1ccc(C(=O)Nc2ccc(F)c([C@]3(C)CS(=O)(=O)[C@](C)(C(C)C)C(=N)N3)c2)nc1
Ki: 0.101 to 0.7 µM

Sample Smiles: COc1cnc(C(=O)Nc2ccc(F)c([C@]3(C)CS(=O)(=O)[C@@](C)(C(C)C)C(=N)N3)c2)cn1
Ki: 0.011 to 0.1 µM

----------
A collection of compounds and their measured pKi
- Subject Of Test: soluble human BACE1 catalytic domain (Homo sapiens (Human))
- Sequence (P56817 75-416): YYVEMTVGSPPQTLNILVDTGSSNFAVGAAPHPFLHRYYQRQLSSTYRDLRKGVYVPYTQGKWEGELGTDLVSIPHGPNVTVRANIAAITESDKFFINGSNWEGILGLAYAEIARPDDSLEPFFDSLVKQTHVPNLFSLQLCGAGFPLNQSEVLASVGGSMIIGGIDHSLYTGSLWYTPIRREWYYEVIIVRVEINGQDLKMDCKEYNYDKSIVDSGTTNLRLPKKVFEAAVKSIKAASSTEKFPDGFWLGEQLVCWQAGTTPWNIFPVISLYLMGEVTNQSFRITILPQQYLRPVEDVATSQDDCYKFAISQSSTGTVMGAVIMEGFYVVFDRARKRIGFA
- Experimental Protocol: BACE1 HTRF FRET Assay
- Test Conditions: read-out: BACE1 inhibition, Ki
pKi: −log10 of the molar value.

Compound: C[C@@]1(c2cc([N+](=O)[O-])ccc2F)CS(=O)(=O)[C@@](C)(c2cccc(C(F)(F)F)c2)C(=N)N1
pKi: 6.22

Compound: CC1(C)C(=N)N[C@](C)(c2cc(Br)cs2)CS1(=O)=O
pKi: 5.33

Compound: C[C@@]1(c2cc(N)ccc2F)CS(=O)(=O)[C@@](C)(c2ccccn2)C(=N)N1
pKi: 5.18

Compound: CC1(C)C(=N)N[C@](C)(c2cc(N)cc(Cl)c2F)CS1(=O)=O
pKi: 5.51

Compound: C[C@@]1(c2cc(N)ccc2F)CS(=O)(=O)[C@@](C)(c2cc(C(F)(F)F)ccn2)C(=N)N1 [Entry 72]
pKi: 5.85

Compound: CC1(C)C(=N)N[C@](C)(c2c(F)cccc2F)CS1(=O)=O
pKi: 5.89

Compound: CC1(C)C(=N)N[C@](C)(c2nc(N)ccc2F)CS1(=O)=O
pKi: 5.21

Compound: C[C@@]1(c2cc(N)ccc2F)CS(=O)(=O)[C@@](C)(c2cccc(F)c2)C(=N)N1
pKi: 5.96

Compound: C[C@@]1(c2sc(Br)cc2F)CS(=O)(=O)[C@@](C)(c2ccccn2)C(=N)N1
pKi: 5.82

Compound: CC1(C)C(=N)N[C@](C)(c2c(F)ccc(N)c2F)CS1(=O)=O
pKi: 5.44

Compound: C[C@@]1(c2cc(N)ccc2F)CS(=O)(=O)[C@@](C)(c2cc(C(F)(F)F)ccn2)C(=N)N1 [Entry 73]
pKi: 5.34

Compound: C[C@]1(CC2CCOCC2)C(=N)N[C@](C)(c2cc(N)ccc2F)CS1(=O)=O
pKi: 5.89

Compound: CC1(C)C(=N)N[C@](C)(c2sc(Br)cc2Cl)CS1(=O)=O
pKi: 5.82

Compound: C[C@@]1(c2cc(N)ccc2F)CS(=O)(=O)[C@@](C)(C2CCC2)C(=N)N1
pKi: 5.77

Compound: CC1(C)C(=N)N[C@](C)(c2cc(N)ccc2F)CS1(=O)=O
pKi: 5.21

Compound: CC(C)[C@]1(C)C(=N)N[C@](C)(c2cc(N)ccc2F)CS1(=O)=O
pKi: 5.14

Compound: C[C@]1(CC2CC2)C(=N)N[C@](C)(c2cc(N)ccc2F)CS1(=O)=O
pKi: 5.74

Compound: CC(C)[C@@]1(C)C(=N)N[C@](C)(c2cc(N)ccc2F)CS1(=O)=O
pKi: 5.32

Compound: C[C@@]1(c2sc(Br)cc2F)CS(=O)(=O)[C@@](C)(c2cccc(F)c2)C(=N)N1
pKi: 6.22

Compound: CC1(C)C(=N)N[C@](C)(c2c(F)ccc(F)c2F)CS1(=O)=O
pKi: 5.62

Compound: CC1(C)C(=N)N[C@](C)(c2cccc(Cl)c2F)CS1(=O)=O
pKi: 5.85

Compound: C[C@@]1(c2cc(F)ccc2F)CS(=O)(=O)[C@@](C)(c2cccc(O)c2)C(=N)N1 [Example 34c-a]
pKi: 6.00

Compound: C[C@]1(CC(F)(F)F)C(=N)N[C@](C)(c2cc(N)ccc2F)CS1(=O)=O
pKi: 5.52
